Overview of recorded cell count for various molecules
Assay: inhibitors of TNFa-induced NFkB p65 translocation, primary screen, imaging, HUVEC, MLSMR starter and 10KST1 sets (AID 438);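 note: compound added about 3h40 before a 20 min TNFalpha stimulation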
Conditions: HUVEC TNFa-induced p65 nuclear translocation; measured here: nuclei count (cytotoxicity indicator), at 2.08 µM
Please reply with the value in numeric form only.

molecule: COc1ccccc1-c1noc(-c2cccnc2)n1
cell count: 405
//
molecule: Cc1cccc(N(C)C(=O)c2cc3cc4ccc(C)cc4nc3o2)c1
cell count: 214
//
molecule: COc1ccc(N2C(=O)CC(N3CCN(S(=O)(=O)c4c(F)cccc4F)CC3)C2=O)cc1OC (stereo unspecified)
cell count: 418
//
molecule: N#CC1=C(N)N(c2ccccc2)C2=C(C(=O)CCC2)C1c1cccs1 (stereo unspecified)
cell count: 610
//
molecule: Cc1ccc(-n2ncc3c(N4CCN(c5ccc(F)cc5)CC4)ncnc32)c(C)c1
cell count: 514

In the following, a different molecule is considered.
INPUT: Would you kindly share the measured cell count for CCC(=O)NC1(C(F)(F)F)C(=O)NC(C)=C1C#N (stereo unspecified) ?
OUTPUT: 382

* * *

fluorescence slope for assorted compounds
Molecular target: Voltage-gated potassium channel subunit beta-2 (Rattus norvegicus)
Experiment: inhibitors of rat Kvbeta2 reductase activity – biochemical, NADPH fluorescence, primary screen (AID 622);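 note: slope of raw intensity against log time taken from 70 to 1610 s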
Conditions: recombinant KvBeta, 4-cyanobenzaldehyde reduction, at 10 µM, stronger effect = higher value
Response field accepts a number only; no unit should be typed.

Example results:
compound: CCn1c(=O)n(CC(=O)Nc2cc(OC)ccc2OC)c(=O)c2ccccc21
value: -0.564
//
compound: Cc1ccc(-n2ncc3c(Nc4c(C)n(C)n(-c5ccccc5)c4=O)ncnc32)c(C)c1
value: -0.538
//
compound: Cc1ccccc1-c1nc2ccccc2c(=O)n1C1CCS(=O)(=O)C1 (stereo unspecified)
value: -0.614

INPUT: # get_value(readout='fluorescence slope', item= "O=C(CSc1nc2ccccc2n1CC(=O)N1CCCC1)Nc1nccs1" )
OUTPUT: -0.484

INPUT: Give the measured fluorescence slope of "C=CCSc1nc2c(c(=O)[nH]c(=O)n2C)n1C(C)C" .
OUTPUT: -0.579

INPUT: Given CCCSC1=C(C#N)C(c2ccccc2OCC)CC(=O)N1 (stereo unspecified) , state its recorded fluorescence slope.
OUTPUT: -0.454

INPUT: // fluorescence slope lookup, key: "C=C(Br)CN1CCN(CC(=C)Br)CC1"
OUTPUT: -0.428

INPUT: Quick check: fluorescence slope of CC(C)Oc1ccc(C2C(C(=O)c3ccco3)=C(O)C(=O)N2CCCN(C)C)cc1 (stereo unspecified) ?
OUTPUT: -0.476

INPUT: Endpoint output: fluorescence slope of COc1c2ccoc2nc2c(OC)c(OCC(O)C(C)(C)O)ccc12 (stereo unspecified) . Value?
OUTPUT: -0.11

INPUT: Record request: fluorescence slope value, item "O=C(c1ccc(Cl)c(Cl)c1)N1CCOCC1"
OUTPUT: -0.568

INPUT: Quick one: fluorescence slope of "Cc1ccc2oc(=O)c3cnn(CC(=O)N4CCCc5ccccc54)c3c2c1" ?
OUTPUT: -0.49

* * *

Test: endothelial E-selectin expression blockers – imaging, HUVEC, immunofluorescence, MLSMR starter and 10KST1 sets, primary screen (AID 487);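 note: signal is fraction of cell area covered by stained E-selectin grains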
Conditions: HUVEC TNFalpha-induced E-selectin immunofluorescence imaging, at 2 µM; stronger effect = higher value
The source made the active and inactive calls.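 The calls were made as follows: active = visually confirmed hit in the image check and inhibition above 20%; inconclusive = visually confirmed hit but inhibition not above 20%; inactive = no visual hit in the image check.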
compounds and their reported inhibition

compound: Cc1ccc(-c2nnc3ccc(SCC(=O)NCc4ccco4)nn23)cc1
inhibition: 17.1% (inactive)

INPUT: Could you share which inhibition value was measured for CCC(=O)N1CCc2cc(Br)cc(S(=O)(=O)CCC(=O)NCC3CCCO3)c21 (stereo not drawn) ?
OUTPUT: -113% (inactive)

INPUT: Endpoint output: inhibition of "CN(Cc1nc(-c2ccncc2)no1)S(=O)(=O)c1ccc(Br)cc1" . Value?
OUTPUT: -56.8% (inactive)
